Origin of measurements: patent US20200289563A1

Molecular target: T1, human CD19 (human, UniProt P15391 20-556)
T1 construct: whole, on cells; also called Cluster of Differentiation 19; hPro1
T1 sequence (looked up): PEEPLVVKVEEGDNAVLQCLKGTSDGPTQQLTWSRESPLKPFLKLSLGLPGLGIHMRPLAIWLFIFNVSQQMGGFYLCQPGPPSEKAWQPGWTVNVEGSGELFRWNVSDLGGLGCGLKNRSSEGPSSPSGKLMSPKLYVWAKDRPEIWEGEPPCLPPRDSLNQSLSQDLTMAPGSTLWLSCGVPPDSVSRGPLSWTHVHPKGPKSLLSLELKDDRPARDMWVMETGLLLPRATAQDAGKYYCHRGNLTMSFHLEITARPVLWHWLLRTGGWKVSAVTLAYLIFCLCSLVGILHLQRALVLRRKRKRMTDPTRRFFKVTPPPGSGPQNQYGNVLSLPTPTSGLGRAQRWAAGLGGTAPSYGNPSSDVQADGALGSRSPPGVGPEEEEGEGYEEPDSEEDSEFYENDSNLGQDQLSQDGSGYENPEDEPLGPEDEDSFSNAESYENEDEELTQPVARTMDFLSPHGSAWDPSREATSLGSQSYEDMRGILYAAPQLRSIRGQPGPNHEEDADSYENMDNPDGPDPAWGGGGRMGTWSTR
Experiment: flow cytometry on CD19 transfected CHO-K1 cells, Scatchard analysis
MEASURED PROPERTY: pKd
Interpret pKd as the negative base-10 log of the concentration measured in mol/L.

Example entries and their recorded answers appear below.
WBP7011_4.202.9 (antibody, mouse IgG2a, V domains shown, also called W7011-4.202.9) VH: EIQLQQSGPELVKPGASVKVSCKASGYAFTSYNMYWVKQSHGKSLEWIGYIDPYNGDTTYNQKFKGKATLTVDKSSSTAYMHLNSLTSEDSAVYYCLTTAYAMDYWGQGTSVTVSS VL: QIVLTQSPAIMSASLGEEITLTCSASSTVNYMHWYQQKSGTSPKLLIYSTSNLASGVPSRFSGSGSGTFYSLTIRSVEAEDAADYYCHQWSSYPYTFGGGTKLEIK; 9.07
WBP7011-4.106.3 (antibody, V domains shown, also called W7011-4.106.3) VH: EVQLQQSGPELVKPGASVKMSCKASGYTFSSYVIHWVKQKPGQGLEWIGYINPYNDGAEYAEKFKGKATLTSDKSSSSAYMELGSLTSEDSAVYYCARGPYYYGGSPFDYWGQGTTLTVSS VL: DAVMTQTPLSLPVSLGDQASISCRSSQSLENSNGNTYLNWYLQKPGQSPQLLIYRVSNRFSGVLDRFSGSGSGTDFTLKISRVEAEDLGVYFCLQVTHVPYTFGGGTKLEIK; 9.64

INPUT: Value lookup for pKd; key = WBP7011-4.100.1 (antibody, V domains shown, also called W7011-4.100.1) VH: EVQLQQSGPELVKPGASVKMSCKASGYTFTSYVIHWVKQKPGQGLEWIGYINPYNDGAEYTEKFKGKATLTSDKSSSTAYMELSSLTSEDSTVYYCARGPYYYGGSPFDYWGQGTTLTVSS VL: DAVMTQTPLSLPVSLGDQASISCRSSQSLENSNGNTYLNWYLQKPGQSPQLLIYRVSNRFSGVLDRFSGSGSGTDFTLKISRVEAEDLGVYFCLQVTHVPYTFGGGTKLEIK
OUTPUT: 9.67
